The reported numbers originate from patent EP0103895A2.

tested on: canine filaria; Dirofilaria immitis; test: Test of anthelmintic effect against canine filaria in naturally infected dogs, subcutaneous injection, microfilaria in blood and adult filaria at autopsy (Test Examples A10, B10, C10, D10); assay type: in vivo; conditions: Dirofilaria immitis, sc, 240 h, dog, 30 mg/Kg x 3, subcutaneous injection; read-out: Effect on adult filaria: Percent of worms killed
Assignment: determine reported inhibition in vivo at 30 mg/kg for the given compounds.
// units = %; emit number, no label

[ask] Need inhibition in vivo at 30 mg/kg, item C=CCN(OC)C(C)=O [Compound B1, N-allyl-N-acetyl-O-methylhydroxylamine]
[reply] 58

[ask] Which measured inhibition in vivo at 30 mg/kg value corresponds to C=CCON(CC=CC)C(C)=O [Compound C9] ?
[reply] 70

[ask] Using the record for C=CCN(OCC)C(C)=O [Compound B8, N-allyl-N-acetyl-O-ethylhydroxylamine] , report its inhibition in vivo at 30 mg/kg.
[reply] 58

[ask] Record request: inhibition in vivo at 30 mg/kg value, item C=CCON(CC=C)C(C)=O [Compound C1, N,O-diallyl-N-acetylhydroxyl- amine]
[reply] 86

[ask] Request the reported inhibition in vivo at 30 mg/kg associated with C=CCON(CC=C)C(=O)CC [Compound C2]
[reply] 62
